Where do these numbers come from? They come from patent US20240228489A1.

Target: human mAChR M1 (Homo sapiens, UniProt P11229)
Sequence (P11229 whole entry): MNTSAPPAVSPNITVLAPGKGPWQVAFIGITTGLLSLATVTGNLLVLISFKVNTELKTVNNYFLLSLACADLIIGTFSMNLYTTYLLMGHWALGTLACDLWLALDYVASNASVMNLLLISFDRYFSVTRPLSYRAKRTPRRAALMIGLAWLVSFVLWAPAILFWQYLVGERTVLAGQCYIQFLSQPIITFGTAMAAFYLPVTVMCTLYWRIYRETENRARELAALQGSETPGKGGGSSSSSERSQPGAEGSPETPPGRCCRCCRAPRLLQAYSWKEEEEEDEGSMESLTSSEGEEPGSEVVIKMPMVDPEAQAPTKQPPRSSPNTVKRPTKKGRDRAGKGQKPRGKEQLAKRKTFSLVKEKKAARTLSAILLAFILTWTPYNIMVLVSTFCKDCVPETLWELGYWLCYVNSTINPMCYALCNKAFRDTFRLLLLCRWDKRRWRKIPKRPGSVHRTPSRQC
Assay: mAChR M1 cell-based functional assay (calcium mobilization), PAM mode: increase in the EC20 acetylcholine response
Description: Chinese hamster ovary (CHO-K1) cells stably expressing rat (r)M1 were purchased from the American Type Culture Collection and cultured according to their indicated protocol. […] Calcium flux was measured using the Functional Drug Screening System (FDSS) 6000 (Hamamatsu Corporation, Tokyo, Japan) as an increase in the fluorescent static ratio. […] Agonist activity was analyzed as a concentration-dependent increase in calcium mobilization upon compound addition. […]
pEC50: −log10 of the molar value.
outcome-measure: pEC50

Use the examples below as a reference point.
Lookup: Value wanted: pEC50 (human mAChR M1 (Homo sapiens, UniProt P11229)) of entry [2H]C1([2H])c2ncccc2C(=O)N1Cc1c(F)cc(-c2cccc3c2cnn3C([2H])([2H])[2H])cc1F [Compound 67]
Found: 6.08

Lookup: Value wanted: pEC50 (human mAChR M1 (Homo sapiens, UniProt P11229)) of entry [2H]C1([2H])c2ncccc2C(=O)N1Cc1ccc(-c2cccc3nn(C)cc23)cc1 [Compound 11]
Found: 5.89

Lookup: Value wanted: pEC50 (human mAChR M1 (Homo sapiens, UniProt P11229)) of entry [2H]C1([2H])c2ncccc2C(=O)N1Cc1c(F)cc(-c2ccc(OC3CN(C(C)C)C3)c3nn(C)cc23)cc1F [Compound 180]
Found: 6.53

[I] [2H]C1([2H])c2ncccc2C(=O)N1Cc1ccc(-c2ccc(OC3CN(C(=O)OC(C)(C)C)C3)c3nn(C)cc23)cc1F [Compound 176]
[II] [2H]C1([2H])c2ncccc2C(=O)N1Cc1c(F)cc(-c2ccc(OC3CCC3)c3nn(C)cc23)cc1F [Compound 125]
Lookup: Please tell me which of the two, I or II , has the higher reported pEC50 value. Give the chosen item's label as your response.
Found: II

[1] [2H]C1([2H])c2ncccc2C(=O)N1Cc1c(F)cc(-c2ccc3nn(C)cc3c2)cc1C1CC1 [Compound 193]
[2] [2H]C1([2H])c2ncccc2C(=O)N1Cc1ccc(-c2cc(F)cc3nn(C)cc23)cc1C [Compound 84]
Lookup: Hey, between 1 and 2 which has a smaller measured pEC50? Give the chosen item's label as your response.
Found: 2

[A] [2H]C1([2H])c2ncccc2C(=O)N1Cc1c(F)cc(-c2cn(C)c(=O)c3nn(C)cc23)cc1F [Compound 79]
[B] [2H]C1([2H])c2ncccc2C(=O)N1Cc1c(F)cc(-c2ccc(OCC3CCO3)c3nn(C)cc23)cc1F (centres unmarked) [Compound 135]
Lookup: Hey, between A and B which has a smaller measured pEC50? Give the chosen item's label as your response.
Found: A
(A: 6.10, B: 6.39)
